These entries and their values trace back to PubChem BioAssay (NCI).

method summary: NCI Yeast Anticancer Drug Screen. Data for the mec2-1 strain (AID 157)
experimental context: S. cerevisiae mec2-1 strain, at 50.0 µM, stronger effect = higher value
About 79,000 compounds went through this panel and 15% of them were active in at least one assay; those are over-represented in the sample as a whole.
readout name: growth inhibition (%)
Answers are plain numbers, in %.

For each of the items listed, what is its growth inhibition?
1. CC(=O)C1=CCC2c3[nH]c4ccccc4c3CCN2C1 (stereo unspecified)
2. CCOC(=O)Nc1ccc(C(=O)OCC)cc1
3. Nc1ccn(CC(=O)c2ccc(Cl)s2)c(=O)n1

Output line:
1. 4.1
2. -15.1
3. 10.8

For each of the items listed, what is its growth inhibition?
1. ClC1CC[N-]CC1.ClC1CC[N-]CC1.O=C(O)CC(=O)O.[Pt+2]
2. CNC(=O)c1ccccc1N
3. C=C(C)[C@@H]1CC[C@]2(C)CC[C@]3(C)[C@H](CC[C@@H]4[C@@]5(C)CC[C@H](O)C(C)(C)[C@@H]5CC[C@]43C)[C@@H]12

Output line:
[55.4, -6.95, -4.95]

---

method summary: NCI Yeast Anticancer Drug Screen. Data for the bub3 strain (AID 167)
experimental context: S. cerevisiae bub3 mutant strain, at 50.0 µM, stronger effect = higher value
The panel holds about 79,000 compounds, 15% with a hit somewhere; the sample as a whole holds those more often.
I'd appreciate it if you could supply growth inhibition values for the items below.
Give bare numbers, in %.

1. C=CCNC(=S)N/C=C(\C#N)c1nc2ccccc2s1 :: -4.35
2. C=C(Br)CN(C(C)=O)C1CCCCC1 :: 15
3. COc1ccc(C(=O)c2cc(OC)c(OC)c(OC)c2)cc1OC :: 7.45
4. CNC(=S)ON1CCCCC1 :: -5.95
5. COC(=O)Nc1nc2ccc(C3c4c(n[nH]c4C)CC(C)(O)C3C(C)=O)cc2[nH]1 (stereo not given) :: 0.45
6. C=C(C)COc1ccc2c(c1)CCC1C2CCC2(C)C1CCC2(C)O (stereo not given) :: -0.9
7. Cc1ccnc2ccccc12 :: -2.15
8. Cc1cc(CN2CCCCC2)c(O)c(CN2CCCCC2)c1 :: -29.4
9. CCOc1snc(C(Cl)(Cl)Cl)c1Cl :: 22.3
10. COc1ccc(N(Cc2ccc(C)o2)C(=S)Nc2ccccc2)cc1 :: 36

For each of the items listed, what is its growth inhibition?
1. COC(=O)Nc1cn2cc(C(=O)c3cccs3)ccc2n1
2. Cc1cccc(NC(=O)CCCCCCCCC(=O)Nc2cccc(C)c2C)c1C
3. c1cnc2ncncc2n1
4. c1ccc(CCN2CCN=C2Cc2ccccc2)cc1
5. COC(=O)n1c(CBr)c(Br)c2ccccc21
6. CC(=O)Nc1ccc(S(=O)(=O)NNC(=O)NNS(=O)(=O)c2ccc(NC(C)=O)cc2)cc1
7. CN1C(=O)CCC1(O)C1C=CC=CC1 (stereo not given)

Output line:
[-42, -2.05, 14.4, -27.1, 4.9, -7, -4.9]

For each of the items listed, what is its growth inhibition?
1. N#C/C=C(\N)C(C#N)C#N
2. Nc1c(-c2nc3ccccc3[nH]2)sc(=S)n1-c1ccc(Cl)cc1
3. O=[N+]([O-])c1ccc2[nH]ccc2c1
4. COCc1cc(C(C)(C)C)cc(CNC2CCCCC2)c1O
5. C/C(=N\N=P(c1ccccc1)(c1ccccc1)c1ccccc1)c1ccccc1
6. COc1ccc(-c2cc(-c3ccccc3)n(C3OCC(OC(C)=O)C(OC(C)=O)C3OC(C)=O)c(=S)c2C#N)cc1 (stereo not given)

Output line:
1: -3.6; 2: 7.8; 3: 3.6; 4: 12.5; 5: 2.6; 6: -3.6

For each of the items listed, what is its growth inhibition?
1. Cn1/c(=N\N=C2\C=C3CCCCC3(C)CC2)sc2ccccc21 (stereo not given)
2. COc1cc2c(cc1O)CN1Cc3cc(O)c(OC)cc3C2C1

Output line:
1: -8.8; 2: -10

---

method summary: NCI Yeast Anticancer Drug Screen. Data for the sgs1 mgt1 strain (AID 161);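 further: 0% = growth of cultures given vehicle only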
experimental context: S. cerevisiae sgs1 mgt1 strain, at 50.0 µM, stronger effect = higher value
Compounds without any hit were thinned out: in the full panel of roughly 79,000, 15% have a hit.
readout name: growth inhibition (%)
One number for each entry, in %.

Study these solved cases before continuing.
1) O=C1CCCC(=O)C1=Cc1c[nH]c2ccccc12 :: -4.35
2) CCOc1c(N=Nc2ccc(Br)cc2)c(C)nn1C(N)=S :: 26.1
3) CC(C)CCOC(=O)COc1ccc(Cl)cc1Cl :: 3.55

For each of the items listed, what is its growth inhibition?
1. COc1ccc(C2OC2C(=O)c2ccccc2)cc1 (stereo not given)
2. CNc1cc2oc(=O)cc(C)c2cc1C

Output line:
1: 19.4; 2: 6.8

---

method summary: NCI Yeast Anticancer Drug Screen. Data for the mlh1 rad18 strain (AID 175)
experimental context: S. cerevisiae mlh1 rad18 strain growth inhibition; at 50.0 µM; stronger effect = higher value
Compounds without any hit were thinned out: in the full panel of roughly 79,000, 15% have a hit. Calls of active or inactive are those of the source. No stated cut-off is given here; in the data, active means growth inhibition above about 70%; inactive means the rest.
I'd appreciate it if you could supply growth inhibition values for the items below.

Study these solved cases before continuing.
1. COc1cc(C2NCCC(c3ccccc3)(c3ccccc3)N2)cc(OC)c1OC (stereo unspecified) :: 5.5% (inactive)
2. COC(=O)C1=C(C)NC(C)=C(C(=O)OC)C1c1cccc(NO)c1 :: 2.85% (inactive)
3. Nc1nc2c(N)cc(C(F)(F)F)cc2nc1-c1ccccc1 :: -12.4% (inactive)
4. Nc1ccc(S(=O)(=O)N/N=C/c2ccc(O)cc2)cc1 :: -11.3% (inactive)
5. COc1cccc2c(NCCCCCO[N+](=O)[O-])cc[n+](C)c12 :: 29.1% (inactive)

Input line: Specify measured growth inhibition for CCOC(=O)c1c(N)n(-c2ccccc2)c(=S)n(-c2ccccc2)c1=O .
Output line: -41.4% (inactive)

---

method summary: NCI Yeast Anticancer Drug Screen. Data for the sgs1 mgt1 strain (AID 161);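 further: 0% = growth of cultures given vehicle only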
experimental context: S. cerevisiae sgs1 mgt1 strain, at 50.0 µM, stronger effect = higher value
Compounds without any hit were thinned out: in the full panel of roughly 79,000, 15% have a hit. Where a SMILES comes first, the peptide text is derived from it. The star is where a group is joined. Cbz = O=C(OCc1ccccc1)*
I'd appreciate it if you could supply growth inhibition values for the items below.
Answers are plain numbers, in %.

Study these solved cases before continuing.
1. C/C(=N/O)C1c2ccccc2Cc2ccccc21 :: -24.4
2. Cn1c(=O)c2c(nc(/N=C/c3ccncc3)n2C)n(C)c1=O :: -5.9
3. Cc1cc2cc3oc(C)cc3cc2o1 :: -7.8

For each of the items listed, what is its growth inhibition?
1. CCC(C)(O)C#CC#CC(C)(O)CC (stereo not drawn)
2. O=C1CCc2ccccc21
3. O=P(c1ccccc1)(c1ccccc1)C(O)c1ccc(F)cc1 (stereo not drawn)
4. Cc1ccc2cccc3c2c1CC1(C3=O)S(=O)(=O)OCCOS1(=O)=O
5. Cc1cn(CC(O)c2cc3ccccc3[nH]2)c(=O)[nH]c1=O (stereo not drawn)
6. O=C(O)c1ccc(O)cn1
7. Cc1ccc(S(=O)(=O)N2CCCC(=O)c3ccccc32)cc1
8. C/C(=C(/O)c1ccc(Cl)cc1)c1nc2cc(Cl)cc([N+](=O)[O-])c2[nH]c1=O

Output line:
22.1
-15
7.4
20.1
-0.1
2.55
-12.9
24.6

For each of the items listed, what is its growth inhibition?
1. CN(C)C(=O)OCC1COc2ccccc2O1 (stereo not drawn)
2. O=C1OC(Oc2ccccc2OC2OC(=O)c3ccccc32)c2ccccc21 (stereo not drawn)

Output line:
1. -23.1
2. 0.4

For each of the items listed, what is its growth inhibition?
1. CN(C)C=Nc1cc2c(cc1Br)-c1ccccc1C2=O
2. COC(=O)c1nnn(-c2cccc(Cl)c2)c1N
3. CC(=O)Nc1ccc(/C=C/c2csnn2)cc1
4. c1ccc(CNC(Cc2ccccc2)c2ccc(OCc3ccccc3)cc2)cc1 (stereo not drawn)
5. C/C(Nc1ccc(F)cc1)=C1/CCOC1=O

Output line:
1: 4.4; 2: -0.25; 3: 11.9; 4: 4; 5: -1.5

For each of the items listed, what is its growth inhibition?
1. O=c1[nH]nc(S(=O)(=O)NC2CCCCC2)c(=O)[nH]1
2. CCCCCCCCCCCCCCCCCCCl
3. CC(=O)NC(c1ccc(Cl)cc1)(c1ccc(Cl)cc1)C(Cl)(Cl)Cl
4. O=[N+]([O-])c1ccc2oc3cccnc3c2c1
5. CO[C@H]1C[C@H]2[C@@H]3CCC4=CC(=O)C=C[C@]4(C)[C@@]3(F)[C@@H](O)C[C@]2(C)[C@@]1(O)C(=O)COC(C)=O
6. COC(=O)C(CCc1ccc([N+](=O)[O-])cc1)(CCc1ccc([N+](=O)[O-])cc1)C(=O)OC
7. Clc1ccc2c(c1)nc(-c1ccccn1)n2CCc1ccncc1
8. CC(=O)Nc1ccc(S(=O)(=O)O)c(C(F)(F)F)c1

Output line:
1. -7.3
2. 0.05
3. -7.4
4. -2.65
5. 22.8
6. 4.15
7. 2.4
8. 12.6

For each of the items listed, what is its growth inhibition?
1. CC(O)C([NH-])C(=O)O.CC([NH-])C(=O)O.[Cu+2] (stereo not drawn)
2. C/C(=C/C(=O)O)CC/C=C(/C)C(=O)O
3. c1ccc(N=C(Nc2ccccc2)N2CCCCC2)cc1
4. C/C(=N\N=C(/C)c1cccc2ccccc12)c1cccc2ccccc12
5. COc1nc2nccc-2c2occn12
6. COc1cc(OC)c(C(C)=O)c(O)c1OC
7. CC(C)(OC(=O)c1ccc([N+](=O)[O-])cc1)C1CC1
8. CC1(C)O[C@@H]2[C@@H](COC(=O)c3ccccc3)C[C@@H](C#N)[C@@H]2O1

Output line:
1. 6.95
2. -1.25
3. -7.9
4. 4.7
5. -16.8
6. 10.9
7. -23.6
8. -25.6

For each of the items listed, what is its growth inhibition?
1. COc1ccc(CCn2cnc3ccccc32)cc1
2. CC(C)CC(NC(=O)C(CO)NC(=O)OCc1ccccc1)C(=O)NC(Cc1ccc(O)cc1)C(N)=O (stereo not drawn) (Cbz-Ser-Leu-Tyr-NH2; configuration not given here)
3. N#CC1(Cc2ccccc2)c2ccccc2-c2ccccc21
4. COC(=O)C1CC/C(=N\Nc2ccc([N+](=O)[O-])cc2[N+](=O)[O-])CC1C(=O)OC (stereo not drawn)
5. C=C(C#N)C1OCC2OC(C)(C)OC21 (stereo not drawn)
6. S=c1cc(Cc2ccccc2)[nH]c(=S)[nH]1

Output line:
1. -34.5
2. 27.6
3. 28.8
4. -8.75
5. -0.35
6. -6.15

For each of the items listed, what is its growth inhibition?
1. O=C(C(=Cc1ccc(F)cc1)C(=O)c1ccccc1)c1ccccc1
2. CCCCC(CC)CN(CC(CC)CCCC)C1C=CCCC1 (stereo not drawn)
3. O=C1C(C2CCCCC2)=C2OCC3COC2(O3)c2ccccc21 (stereo not drawn)

Output line:
1: -12; 2: 7.9; 3: -20.1

For each of the items listed, what is its growth inhibition?
1. C=CCCN=C(SC)SC
2. CSc1c(C#N)c2c(Cl)ncnc2n1C(C)=O
3. Cc1ccc(N=NC(=O)NNc2ccc(C)cc2Br)c(Br)c1
4. [Mn].[NH-]C(CSSCC(N)C(=O)O)C(=O)O (stereo not drawn)

Output line:
1: 16.2; 2: 9.95; 3: -3.8; 4: -1

Input line: Specify measured growth inhibition for Cc1cc(N)ccc1N=Nc1cc(S(=O)(=O)O)c2cccc(S(=O)(=O)O)c2c1 .
Output line: -2.65
